# Test system: MST2;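 also: KINOMEscan kinase panel screen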
# Construct: gene STK3
# Conditions used: concentration: 1 μM, replicates: in singlicate; n = 1
Catalogue of molecules with associated %Inh
Provide the reading as a plain figure in %.

Compound structure string	%Inh, %
COC(=O)Nc1nc2ccc(Oc3ccc(NC(=O)Nc4cc(C(F)(F)F)ccc4F)cc3)cc2n1C.Cl	0

Record request: %Inh value, item O=C(Nc1cccc(-c2nn3ccccc3c2-c2ccnc(Nc3cccc(F)c3)n2)c1)c1c(F)ccc(F)c1Cl
0

Record request: %Inh value, item C[C@@H](Oc1cc(-n2cnc3cc(-c4ccnc(NCCS(C)(=O)=O)c4)ccc32)sc1C(N)=O)c1ccccc1Cl
0

Record request: %Inh value, item Cc1ccc(C(=O)N2CC[C@@H](O)C2)cc1-n1c(C)cc(OCc2ccc(F)cc2F)c(Br)c1=O
5

Record request: %Inh value, item Fc1ccc(-c2ncn(C3CCNCC3)c2-c2ccnc(Oc3ccc(-c4ccccc4)cc3)n2)cc1
30

Record request: %Inh value, item CN(C)S(=O)(=O)c1cc(-c2ccc3nccc(-c4cccc(S(N)(=O)=O)c4)c3c2)cnc1N
2

Record request: %Inh value, item Cc1ccc(F)c(C(=O)Nc2cccc(-c3nn4ccccc4c3-c3ccnc(Nc4cccc(F)c4)n3)c2)c1F
0

Record request: %Inh value, item COc1cc(Nc2nccc(-c3c(-c4cccc(NC(=O)c5c(F)cccc5F)c4)nn4ncccc34)n2)cc(OC)c1OC
92.1
